Test system: NCI/ADR-RES ovarian
Experiment: NCI-60 one-dose screen, 48 h
Conditions: 10 µM unless noted
Method: Growth inhibition of the NCI/ADR-RES human […] tumor cell line is measured as a screen for anti-cancer activity. Cells are grown in 96 well plates and exposed to the test compound for 48 hours. Compounds are tested at a single concentration, which is 10^-5 M for most compounds. The reported endpoint is percent growth (GI% or GIPRCNT), where numbers from 0 - 100% represent growth inhibition, and numbers from -100% - 0 represent cell death. For example, a value of 40 represents 60% growth inhibition. […]
Compounds without any hit were thinned out: in the full panel of roughly 83,000, 20% have a hit. Active and inactive are the calls of the source. Rule for the calls: active = growth percent below 10; inactive = the rest.
Your response should consist of one outcome taken from yes (active), no (inactive)

In: Hi team, can someone confirm the assay call for CC1CCc2c(sc(NC(=O)CSc3nnc4ccccn34)c2C(N)=O)C1 (stereo not given) ?
Out: no

In: Hi team, can someone confirm the assay call for `CCn1cc(C(=O)O)c(=O)c2cc(F)c(N3CCN(S(=O)(=O)c4ccc(Cl)cc4Cl)CC3)cc21` ?
Out: yes

In: Hi team, can someone confirm the assay call for `COC1=CC(c2ccc[nH]2)=N/C1=C\c1[nH]c(C)c(C(=O)CCCCC(=O)Nc2ccccc2)c1C` ?
Out: no

In: Hi team, can someone confirm the assay call for Nc1c(C(=O)Nc2cccc(C(F)(F)F)c2)sc2nc3c(cc12)C(O)CCC3 (stereo not given) ?
Out: no

In: Hi team, can someone confirm the assay call for `NC(=S)NN=C1CCCCC1` ?
Out: no

Origin of the recorded values: PubChem BioAssay (NCI)
